Tested on: M14 melanoma
Experiment: NCI tumour cell line growth inhibition, 48 h; in the data active = GI50 below about 0.43 µM; inactive = the rest
# output must be one of y for active, n for inactive

Which outcome was assigned to COc1cc2c(cc1OC)C(=O)C(Br)CC2 (stereo not given) in this test?
n

Which outcome was assigned to O=C1c2cc3c(cc2-c2c1c1cc(Cl)c(Cl)cc1c(=O)n2CCCn1ccnc1)OCO3 in this test?
y

Which outcome was assigned to C[C@@H](c1ccc2nccn2c1)n1nnc2ncc(-c3cnn(C)c3)nc21 in this test?
n

Which outcome was assigned to COc1ccc(/C=C2\CN(C(=O)CCN3CCC(=NO)CC3)C/C(=C\c3ccc(OC)cc3)C2=O)cc1 in this test?
n

Which outcome was assigned to COc1cc2cc(Oc3ccc(NC(=O)Nc4ccc(F)c(C(F)(F)F)c4)cc3)c(C)nc2cc1OCCN1CCCCC1 in this test?
n

Which outcome was assigned to O=c1c(Cl)nnc2sc3ccccc3n12 in this test?
n

Which outcome was assigned to COc1cc(C2CC(c3cccc(Nc4ccncc4)c3)=NN2c2cc(Cl)cc(Cl)c2)cc(OC)c1OC (stereo not given) in this test?
n

Which outcome was assigned to O=C(Nc1n[nH]c2nc(-c3ccco3)c(Br)cc12)C1CC1 in this test?
n

Which outcome was assigned to CC(=O)c1ccc(Nc2cc(-n3ccnc3)nc3ccccc23)cc1 in this test?
n

Which outcome was assigned to Cc1cc2c(C)c3cc(C)c(N)cc3nc2cc1N in this test?
n

Cited source for all entries: PubChem BioAssay (NCI)
